B1: library; a variant is named by its letters at N, in order (parent)
chain: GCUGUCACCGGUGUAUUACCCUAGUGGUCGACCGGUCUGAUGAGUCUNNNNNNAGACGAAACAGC

# Variants of: B1
# assay-summary: normalized RNA/DNA level with ligand (relative to sTRSVctl = 100) (log10 (% of sTRSVctl)); ligand: hypoxanthine (xanthine aptamer); higher = less ribozyme self-cleavage, higher mRNA level
# protocol-conditions: ligand concentration (+) RNA-Seq: 5 mM, HEK293T, reporter: mCherry (pCS4076), ligand present: yes
assay-endpoint: normalized RNA/DNA level with ligand (log10)

mutation-code | test-result
GCUAGG | 1.83
UGGGGA | 1.88
AGGGCG | 1.91
CGGAAA | 1.87
UGCCAC | 1.94
GCUUAG | 1.83
UAGUUC | 1.94
UUGAAG | 1.93
ACUGCC | 1.99
